B1: library; numbered along this chain (parent)
chain: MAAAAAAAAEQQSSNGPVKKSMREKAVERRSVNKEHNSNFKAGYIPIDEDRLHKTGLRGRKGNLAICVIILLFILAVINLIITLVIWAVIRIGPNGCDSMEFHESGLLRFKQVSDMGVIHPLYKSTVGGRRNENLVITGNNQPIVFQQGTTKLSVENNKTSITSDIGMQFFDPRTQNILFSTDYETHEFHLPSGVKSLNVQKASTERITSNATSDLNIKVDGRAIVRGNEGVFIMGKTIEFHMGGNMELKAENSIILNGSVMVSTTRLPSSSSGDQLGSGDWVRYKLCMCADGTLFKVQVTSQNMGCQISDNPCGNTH

variants of: B1; assay: SGCB cell-surface expression functional score (HA stain, bin4 vs bin1, normalised to synonymous) (log10 ratio); higher = more cell-surface SGCB (functional)
METRIC NAME: SGCB cell-surface expression functional score (log10)
Numbers only.

I66A
-0.11

For each of the variants below, note its SGCB cell-surface expression functional score (log10).
1. N141E
2. T209K

1: -0.4; 2: -1.12
